# Measured Target: Steroid 17-alpha-hydroxylase/17,20 lyase (Homo sapiens, UniProt P05093)
# Sequence (P05093 whole entry): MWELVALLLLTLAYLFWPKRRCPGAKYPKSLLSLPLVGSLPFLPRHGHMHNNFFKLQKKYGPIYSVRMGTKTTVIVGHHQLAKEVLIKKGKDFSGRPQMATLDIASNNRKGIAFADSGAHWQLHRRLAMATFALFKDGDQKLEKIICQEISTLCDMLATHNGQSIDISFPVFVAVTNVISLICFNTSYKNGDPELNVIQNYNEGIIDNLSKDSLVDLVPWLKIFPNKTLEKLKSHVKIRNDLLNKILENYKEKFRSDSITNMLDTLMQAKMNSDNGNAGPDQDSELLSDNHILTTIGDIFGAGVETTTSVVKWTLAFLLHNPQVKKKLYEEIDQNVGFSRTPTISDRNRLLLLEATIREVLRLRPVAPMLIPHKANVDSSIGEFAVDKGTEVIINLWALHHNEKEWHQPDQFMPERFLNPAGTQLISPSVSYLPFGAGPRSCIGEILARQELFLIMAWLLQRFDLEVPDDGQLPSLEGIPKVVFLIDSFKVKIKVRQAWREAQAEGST
# Test Protocol: Inhibition of CYP17 in human testicular microsomes using 17alpha-hydroxypregnenolone as substrate assessed as decrease in DHEA levels at 10 nM after 90 mins by ELISA relative to control
# Design: species or system Testis
# Details: 1.5 h
Quantity: inhibition at 0.01 µM

CCOc1cncc(C2=CC[C@H]3[C@@H]4CC[C@H]5CCCCC[C@]5(C)[C@H]4CC[C@]23C)c1; 1 to 50%
CC(=O)O[C@H]1CC[C@@]2(C)[C@@H](CC[C@H]3C4=CC=C(n5ccnc5)[C@@]4(C)CC[C@@H]32)C1; ≥ 80%
C[C@]12CC(=O)C[C@@H]1CC[C@@H]1[C@@H]2CC[C@]2(C)C(n3ccnc3)=CC[C@@H]12; ≥ 80%
C[C@]12CCCNC[C@@H]1CC[C@@H]1[C@@H]2CC[C@]2(C)C(n3ccnn3)=CC[C@@H]12; 1 to 50%
CN1C(=O)CC[C@@]2(C)C1=CC[C@@H]1[C@@H]2CC[C@]2(C)C(n3ccnc3)=CC[C@@H]12; 50 to 80%
C[C@]12CC[C@H](O)CC1=CC[C@@H]1[C@@H]2CC[C@]2(C)C(c3cccnc3)=CC[C@@H]12; ≥ 80%
C[C@]12CCCCC[C@@H]1CC[C@@H]1[C@@H]2CC[C@]2(C)C(n3ccnc3)=CC[C@@H]12; 50 to 80%

These measurements were taken from ChEMBL document CHEMBL3882724.
